Every entry's value here was drawn from patent US20210253718A1.

Recorded median fluorescence by entry
- system.under.test: T1, FZD10 cysteine-rich domain (CRD), MYC-tagged and GPI-anchored on CHO cells (human, UniProt Q9ULW2 30-156, GPI anchor)
- T1 construct: also called FZD10 CRD; CHO-myc-FZDGPI; not shown: MYC tag and GPI anchor signal
- T1 sequence: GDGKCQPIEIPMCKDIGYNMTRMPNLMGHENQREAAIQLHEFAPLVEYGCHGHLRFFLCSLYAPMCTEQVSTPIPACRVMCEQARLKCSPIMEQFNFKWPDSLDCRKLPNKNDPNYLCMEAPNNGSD
- protocol.text: flow cytometry, CHO-CRD cells;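 also: flow cytometry of Fab binding to CHO cells overexpressing a Frizzled CRD, with binding defined as median fluorescence over twice that of CHO cells lacking any Frizzled CRD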

{"columns": ["binder", "median fluorescence"],
 "data": [
  ["Fab-2907 (Fab, V domains shown, Fab; also called Fv-2907) VH: EVQLVESGGGLVQPGGSLRLSCAASGFNIYSSYMHWVRQAPGKGLEWVASISSYSGSTYYADSVKGRFTISADTSKNTAYLQMNSLRAEDTAVYYCARSSWGAYIVSYGFDYWGQGTLVTVSS VL: DIQMTQSPSSLSASVGDRVTITCRASQSVSSAVAWYQQKPGKAPKLLIYSASSLYSGVPSRFSGSRSGTDFTLTISSLQPEDFATYYCQQVGYWWGLITFGQGTKVEIK", 2.76],
  ["Fab-2925 (Fab, V domains shown, Fab; also called Fv-2925) VH: EVQLVESGGGLVQPGGSLRLSCAASGFNLSYSSMHWVRQAPGKGLEWVASIYPSYGSTYYADSVKGRFTISADTSKNTAYLQMNSLRAEDTAVYYCARYGYFGLDYWGQGTLVTVSS VL: DIQMTQSPSSLSASVGDRVTITCRASQSVSSAVAWYQQKPGKAPKLLIYSASSLYSGVPSRFSGSRSGTDFTLTISSLQPEDFATYYCQQAWVYASLFTFGQGTKVEIK", 4.53],
  ["Fab-2902 (Fab, V domains shown, Fab; also called Fv-2902) VH: EVQLVESGGGLVQPGGSLRLSCAASGFNISYYYIHWVRQAPGKGLEWVASISSSSSSTSYADSVKGRFTISADTSKNTAYLQMNSLRAEDTAVYYCARGALDYWGQGTLVTVSS VL: DIQMTQSPSSLSASVGDRVTITCRASQSVSSAVAWYQQKPGKAPKLLIYSASSLYSGVPSRFSGSRSGTDFTLTISSLQPEDFATYYCQQWYAFGALITFGQGTKVEIK", 4.1],
  ["Fab-2911 (Fab, V domains shown, Fab; also called Fv-2911) VH: EVQLVESGGGLVQPGGSLRLSCAASGFNIYYSSMHWVRQAPGKGLEWVAYIYPYSGYTSYADSVKGRFTISADTSKNTAYLQMNSLRAEDTAVYYCARYFWWYGFDYWGQGTLVTVSS VL: DIQMTQSPSSLSASVGDRVTITCRASQSVSSAVAWYQQKPGKAPKLLIYSASSLYSGVPSRFSGSRSGTDFTLTISSLQPEDFATYYCQQGPWYPFTFGQGTKVEIK", 3.96],
  ["Fab-2924 (Fab, V domains shown, Fab; also called Fv-2924) VH: EVQLVESGGGLVQPGGSLRLSCAASGFNISYSYIHWVRQAPGKGLEWVASIYSYYSSTSYADSVKGRFTISADTSKNTAYLQMNSLRAEDTAVYYCARGALDYWGQGTLVTVSS VL: DIQMTQSPSSLSASVGDRVTITCRASQSVSSAVAWYQQKPGKAPKLLIYSASSLYSGVPSRFSGSRSGTDFTLTISSLQPEDFATYYCQQWYSGHSLITFGQGTKVEIK", 4.78],
  ["Fab-2936 (Fab, V domains shown, Fab; also called Fv-2936) VH: EVQLVESGGGLVQPGGSLRLSCAASGFNISYYYMHWVRQAPGKGLEWVASIYSSSGSTSYADSVKGRFTISADTSKNTAYLQMNSLRAEDTAVYYCARAAMDYWGQGTLVTVSS VL: DIQMTQSPSSLSASVGDRVTITCRASQSVSSAVAWYQQKPGKAPKLLIYSASSLYSGVPSRFSGSRSGTDFTLTISSLQPEDFATYYCQQWYAASLITFGQGTKVEIK", 2.5],
  ["Fab-2927 (Fab, V domains shown, Fab; also called Fv-2927) VH: EVQLVESGGGLVQPGGSLRLSCAASGFNIYYSSMHWVRQAPGKGLEWVASIYPSYGYTSYADSVKGRFTISADTSKNTAYLQMNSLRAEDTAVYYCARYGYYGFDYWGQGTLVTVSS VL: DIQMTQSPSSLSASVGDRVTITCRASQSVSSAVAWYQQKPGKAPKLLIYSASSLYSGVPSRFSGSRSGTDFTLTISSLQPEDFATYYCQQWGSHGYLITFGQGTKVEIK", 3.31],
  ["Fab-2931 (Fab, V domains shown, Fab; also called Fv-2931) VH: EVQLVESGGGLVQPGGSLRLSCAASGFNLSYSSMHWVRQAPGKGLEWVAYISPYSGSTYYADSVKGRFTISADTSKNTAYLQMNSLRAEDTAVYYCARGSYWYVGGGWWVSGHGGMDYWGQGTLVTVSS VL: DIQMTQSPSSLSASVGDRVTITCRASQSVSSAVAWYQQKPGKAPKLLIYSASSLYSGVPSRFSGSRSGTDFTLTISSLQPEDFATYYCQQSSYSLITFGQGTKVEIK", 2.59],
  ["Fab-2898 (Fab, V domains shown, Fab; also called Fv-2898) VH: EVQLVESGGGLVQPGGSLRLSCAASGFNIYSYSMHWVRQAPGKGLEWVASIYSSSGSTSYADSVKGRFTISADTSKNTAYLQMNSLRAEDTAVYYCARAVWGLDYWGQGTLVTVSS VL: DIQMTQSPSSLSASVGDRVTITCRASQSVSSAVAWYQQKPGKAPKLLIYSASSLYSGVPSRFSGSRSGTDFTLTISSLQPEDFATYYCQQWWGYYSLITFGQGTKVEIK", 4.26],
  ["Fab-2917 (Fab, V domains shown, Fab; also called Fv-2917) VH: EVQLVESGGGLVQPGGSLRLSCAASGFNFSSSSIHWVRQAPGKGLEWVASISSSYGYTYYADSVKGRFTISADTSKNTAYLQMNSLRAEDTAVYYCARAVWYYWWVWGGFDYWGQGTLVTVSS VL: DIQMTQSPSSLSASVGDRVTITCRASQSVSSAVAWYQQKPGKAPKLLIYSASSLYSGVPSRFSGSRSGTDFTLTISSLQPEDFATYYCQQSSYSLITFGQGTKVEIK", 2.76]
]}
